- TESTED TARGET: CCR2 (Homo sapiens, UniProt P41597)
- Sequence (P41597 1-360 isoform P41597-2): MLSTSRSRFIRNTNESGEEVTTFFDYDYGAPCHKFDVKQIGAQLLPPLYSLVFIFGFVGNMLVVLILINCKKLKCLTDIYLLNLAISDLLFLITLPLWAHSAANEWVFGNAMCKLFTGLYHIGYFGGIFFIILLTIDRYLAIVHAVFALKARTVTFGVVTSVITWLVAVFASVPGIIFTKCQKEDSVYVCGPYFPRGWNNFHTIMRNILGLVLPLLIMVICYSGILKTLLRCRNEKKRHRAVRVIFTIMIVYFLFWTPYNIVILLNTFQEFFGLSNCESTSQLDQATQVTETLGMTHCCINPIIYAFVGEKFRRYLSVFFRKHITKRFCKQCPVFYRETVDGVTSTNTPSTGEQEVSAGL
pIC50: −log10 of the molar value.
Lab note: compare pIC50 against 7. Equal or greater, write Criterion met. Smaller, write Criterion not met.

- MOLECULE: "O=C(O)C(C1CCN(C(=O)/C=C/c2ccc(F)c(Br)c2)CC1)N1CCC(c2c[nH]c3ccccc23)CC1 (stereo not drawn)"
  LABEL VALUE: "Criterion met"
- MOLECULE: "COC(=O)c1ccc2[nH]cc(C3CCN(C(C(=O)O)C4CCN(C(=O)/C=C/c5cc(F)c(F)c(F)c5)CC4)CC3)c2c1 (stereo not drawn)"
  LABEL VALUE: "Criterion met"
- MOLECULE: "O=C(/C=C/c1ccc(F)c(Br)c1)N1CCC(C(CO)N2CCC(c3ccncc3)CC2)CC1 (stereo not drawn)"
  LABEL VALUE: "Criterion not met"

QUERY: Dear colleague, could you confirm whether CSc1ccc(NC(=O)N2CCC(C(C(=O)O)N3CCC(c4c[nH]c5ccccc45)CC3)CC2)cc1 (stereo not drawn) has pIC50 at or above 7?
RESULT: Criterion not met

QUERY: Exam item: decide whether the reported pIC50 for COc1ccc2[nH]cc(C3CCN(C(CO)C4CCN(C(=O)/C=C/c5cc(F)cc(F)c5)CC4)CC3)c2c1 (stereo not drawn) is at least 7.
RESULT: Criterion met

QUERY: In plain terms: is recorded pIC50 at least 7 for O=C(/C=C/c1ccc([N+](=O)[O-])cc1)OCC(C1CCN(C(=O)/C=C/c2ccc([N+](=O)[O-])cc2)CC1)N1CCC(c2c[nH]c3ccccc23)CC1 (stereo not drawn) ?
RESULT: Criterion not met

====

- TESTED TARGET: CCR2 (Homo sapiens, UniProt P41597)
just bin them by IC50: low range (below 0.02 µM), mid range (0.02 µM to below 0.2 µM), high range (0.2 µM or more)

- COMPOUND: "COC(=O)c1ccc(C2CCN(C(C(=O)O)C3CCN(C(=O)/C=C/c4cc(F)cc(F)c4)CC3)CC2)cc1 (stereo not drawn)"
  LABEL VALUE: "high range"
- COMPOUND: "O=C(/C=C/c1cc(F)cc(F)c1)N1CCC(C(CO)N2CCC(c3c[nH]c4c3ccc[n+]4[O-])CC2)CC1 (stereo not drawn)"
  LABEL VALUE: "mid range"
- COMPOUND: "O=C(O)C(C1CCN(C(=O)/C=C/c2ccc(Cl)c(Cl)c2)CC1)N1CCC(c2c[nH]c3cc(F)ccc23)CC1 (stereo not drawn)"
  LABEL VALUE: "low range"
- COMPOUND: "CS(=O)(=O)Nc1ccc2[nH]cc(C3CCN(C(CO)C4CCN(C(=O)/C=C/c5ccc(Cl)c(Cl)c5)CC4)CC3)c2c1 (stereo not drawn)"
  LABEL VALUE: "low range"

QUERY: Determine which band this compound sits in: N=C(NC(=O)c1ccc(Cl)c(Cl)c1)N1CCC(C(C(=O)O)N2CCC(c3c[nH]c4ccccc34)CC2)CC1 (stereo not drawn)
RESULT: mid range

QUERY: Bin? O=CNCC(C1CCN(C(=O)/C=C/c2ccc(Cl)c(Cl)c2)CC1)N1CCC(c2c[nH]c3ccccc23)CC1 (stereo not drawn)
RESULT: high range

QUERY: Class for N=C(NC(=O)c1cccc(C(F)(F)F)c1)N1CCC(C(C(=O)O)N2CCC(c3c[nH]c4ccccc34)CC2)CC1 (stereo not drawn) ?
RESULT: mid range

QUERY: Using the reported IC50, which band applies to COC(=O)NCC(C1CCN(C(=O)/C=C/c2cc(F)c(F)c(F)c2)CC1)N1CCC(c2c[nH]c3ccccc23)CC1 (stereo not drawn) ?
RESULT: high range

QUERY: Dear colleague, I would appreciate it if you could identify the bin for O=C(O)C(C1CCN(C(=O)/C=C/c2ccc(F)cc2)CC1)N1CCC(c2c[nH]c3ccccc23)CC1 (stereo not drawn) and reply at your convenience.
RESULT: mid range
